test system: MRSA (NCIM 5021); experiment: Minimum bactericidal concentration (MBC); type: cell-based, methicillin-resistant Staphylococcus aureus
Assignment: determine reported MBC/MIC for the given compounds.
Write the value as a bare number.

MBC/MIC lookup needed for COc1ccc(OCC(=O)Nc2ccc(C(=O)O)cc2)cc1 [Compound 27] , thanks.
2

MBC/MIC lookup needed for COc1ccc(OCC(=O)Nc2ccc(Cl)cc2)cc1 [Compound 28] , thanks.
4

MBC/MIC lookup needed for O=C(CCl)Nc1ccccc1OCC(=O)Nc1ccc([N+](=O)[O-])cc1[N+](=O)[O-] [Compound 7] , thanks.
1

MBC/MIC lookup needed for O=C(CSc1nc2ccccc2s1)Nc1ccc(C(=O)O)cc1[N+](=O)[O-] [Compound 25] , thanks.
3

MBC/MIC lookup needed for O=C(COc1ccccc1NC(=O)CCl)Nc1ccc(C(=O)O)cc1Br [Compound 5] , thanks.
2

MBC/MIC lookup needed for O=C(COc1ccccc1NC(=O)CCl)Nc1ccc(C(=O)O)cc1 [Compound 3] , thanks.
1

MBC/MIC lookup needed for O=C(COc1ccccc1NC(=O)CCl)Nc1cccc(Cl)c1 [Compound 10] , thanks.
1

MBC/MIC lookup needed for O=C(COc1ccccc1NC(=O)CCl)NNc1ccc([N+](=O)[O-])cc1[N+](=O)[O-] [Compound 17] , thanks.
2

---

tested on: E. coli; assay: Checkerboard synergy with FDA approved drugs; format: cell-based, Escherichia coli; conditions: FIC of the drug in combination with compound 5
Readout Name: FIC B

FIC B lookup needed for O=C(O)c1cn(C2CC2)c2cc(N3CCNCC3)c(F)cc2c1=O [Ciprofloxacin] , thanks.
0.1556

FIC B lookup needed for CO[C@H]1/C=C/O[C@@]2(C)Oc3c(C)c(O)c4c(O)c(c(/C=N/N5CCN(C)CC5)c(O)c4c3C2=O)NC(=O)/C(C)=C\C=C\[C@H](C)[C@H](O)[C@@H](C)[C@@H](O)[C@@H](C)[C@H](OC(C)=O)[C@@H]1C [Rifampicin] , thanks.
0.0524

FIC B lookup needed for C[C@H]1c2cccc(O)c2C(=O)C2=C(O)[C@]3(O)C(=O)C(C(N)=O)=C(O)[C@@H](N(C)C)[C@@H]3[C@@H](O)[C@@H]21 [Doxycycline] , thanks.
0.0273

FIC B lookup needed for CNC(C)C1CCC(N)C(OC2C(N)CC(N)C(OC3OCC(C)(O)C(NC)C3O)C2O)O1 (stereo not shown) [Gentamicin] , thanks.
0.1254

---

system: Vero cells; experiment: In vitro cytotoxicity MTT assay; details: CC50 Vero cells / IC50
Please note: Criterion met applies when SI (CC50/IC50) is 200 or greater, and Criterion not met applies otherwise.

Has O=C(COc1ccccc1NC(=O)CCl)Nc1ccc([N+](=O)[O-])cc1 [Compound 1] a recorded SI (CC50/IC50) greater than or equal to 200?
Criterion met

Has O=C(COc1ccccc1NC(=O)CCl)Nc1ccc(C(=O)O)cc1 [Compound 3] a recorded SI (CC50/IC50) greater than or equal to 200?
Criterion not met

Has O=C(COc1ccccc1NC(=O)CCl)Nc1ccc(C(=O)O)cc1Br [Compound 5] a recorded SI (CC50/IC50) greater than or equal to 200?
Criterion not met

Has O=C(COc1ccccc1NC(=O)CCl)NNc1ccc([N+](=O)[O-])cc1[N+](=O)[O-] [Compound 17] a recorded SI (CC50/IC50) greater than or equal to 200?
Criterion not met

Has Cc1cccc([N+](=O)[O-])c1NC(=O)COc1ccccc1NC(=O)CCl [Compound 4] a recorded SI (CC50/IC50) greater than or equal to 200?
Criterion not met

Has O=C(CSc1nc2ccccc2s1)Nc1ccc([N+](=O)[O-])cc1 [Compound 24] a recorded SI (CC50/IC50) greater than or equal to 200?
Criterion met

Has O=C(COc1ccccc1NC(=O)CCl)NNC(=O)c1ccc([N+](=O)[O-])cc1 [Compound 14] a recorded SI (CC50/IC50) greater than or equal to 200?
Criterion not met

Has O=C(CCl)Nc1ccccc1OCC(=O)Nc1ccc([N+](=O)[O-])cc1[N+](=O)[O-] [Compound 7] a recorded SI (CC50/IC50) greater than or equal to 200?
Criterion met

---

target: E. coli ParE enzyme (Escherichia coli, UniProt P20083); construct: purchased ProFoldin, Hudson, United States; test: E. coli ParE ATPase enzyme inhibition assay (ProFoldin kit, malachite green); assay type: biochemical; conditions: ATPase activity, mean ± SD (n = 3)
Sequence (P20083 whole entry): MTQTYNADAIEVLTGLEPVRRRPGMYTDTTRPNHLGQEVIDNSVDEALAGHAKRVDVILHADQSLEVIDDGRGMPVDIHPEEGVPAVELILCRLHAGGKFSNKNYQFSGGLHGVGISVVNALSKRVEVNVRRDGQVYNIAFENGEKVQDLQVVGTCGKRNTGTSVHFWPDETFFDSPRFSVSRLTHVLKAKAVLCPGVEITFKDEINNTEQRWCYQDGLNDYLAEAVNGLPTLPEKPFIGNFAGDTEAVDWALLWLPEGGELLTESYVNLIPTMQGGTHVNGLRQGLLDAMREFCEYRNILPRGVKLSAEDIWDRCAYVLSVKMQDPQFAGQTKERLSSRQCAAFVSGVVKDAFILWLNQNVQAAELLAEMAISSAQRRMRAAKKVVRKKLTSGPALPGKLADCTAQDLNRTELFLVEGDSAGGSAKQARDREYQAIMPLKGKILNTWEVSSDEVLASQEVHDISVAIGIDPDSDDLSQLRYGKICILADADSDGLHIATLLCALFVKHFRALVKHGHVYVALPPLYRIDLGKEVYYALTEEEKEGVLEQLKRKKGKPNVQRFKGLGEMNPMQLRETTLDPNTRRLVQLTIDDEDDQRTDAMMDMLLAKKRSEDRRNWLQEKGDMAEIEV
Sequence (P0AFI2 whole entry, further chain): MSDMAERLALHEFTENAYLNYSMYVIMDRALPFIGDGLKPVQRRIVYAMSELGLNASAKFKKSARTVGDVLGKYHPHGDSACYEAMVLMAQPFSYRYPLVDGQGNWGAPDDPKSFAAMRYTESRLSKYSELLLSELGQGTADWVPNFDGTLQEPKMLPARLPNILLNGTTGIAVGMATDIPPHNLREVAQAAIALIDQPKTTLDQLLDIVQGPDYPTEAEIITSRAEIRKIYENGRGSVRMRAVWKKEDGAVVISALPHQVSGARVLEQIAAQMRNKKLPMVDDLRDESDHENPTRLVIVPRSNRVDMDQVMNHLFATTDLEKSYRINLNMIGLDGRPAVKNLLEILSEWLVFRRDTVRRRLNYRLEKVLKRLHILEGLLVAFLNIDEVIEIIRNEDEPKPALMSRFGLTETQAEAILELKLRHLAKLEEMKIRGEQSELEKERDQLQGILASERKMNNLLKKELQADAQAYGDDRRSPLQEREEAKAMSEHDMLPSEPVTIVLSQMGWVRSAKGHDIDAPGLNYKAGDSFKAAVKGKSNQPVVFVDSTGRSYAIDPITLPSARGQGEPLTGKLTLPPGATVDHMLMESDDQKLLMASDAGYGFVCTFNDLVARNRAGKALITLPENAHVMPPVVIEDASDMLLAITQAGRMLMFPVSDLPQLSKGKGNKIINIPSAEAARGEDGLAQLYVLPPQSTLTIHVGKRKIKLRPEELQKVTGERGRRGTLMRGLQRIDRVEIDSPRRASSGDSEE
Please use y for IC50 against E. coli ParE enzyme under 1 µg/mL and n for everything else, ties included.

Criterion: IC50 against E. coli ParE enzyme strictly below 1 µg/mL. Is it met by `O=C(COc1ccccc1NC(=O)CCl)Nc1ccc(S(=O)(=O)O)cc1` ?
n

Criterion: IC50 against E. coli ParE enzyme strictly below 1 µg/mL. Is it met by `O=C(CCl)Nc1ccccc1OCC(=O)Nc1ccc([N+](=O)[O-])cc1[N+](=O)[O-]` ?
y

Criterion: IC50 against E. coli ParE enzyme strictly below 1 µg/mL. Is it met by `O=C(COc1ccccc1NC(=O)CCl)Nc1cccc(Cl)c1` ?
n

Criterion: IC50 against E. coli ParE enzyme strictly below 1 µg/mL. Is it met by `Cc1ccc(S(=O)(=O)NC(=O)COc2ccccc2NC(=O)CCl)cc1` ?
n

Criterion: IC50 against E. coli ParE enzyme strictly below 1 µg/mL. Is it met by `O=C(COc1ccccc1NC(=O)CCl)Nc1ccccc1` ?
n

Criterion: IC50 against E. coli ParE enzyme strictly below 1 µg/mL. Is it met by `O=C(COc1ccccc1NC(=O)CCl)Nc1ccc(Cl)cc1` ?
n

Criterion: IC50 against E. coli ParE enzyme strictly below 1 µg/mL. Is it met by `O=C(COc1ccccc1NC(=O)CCl)Nc1ccc(C(=O)O)cc1` ?
y

Criterion: IC50 against E. coli ParE enzyme strictly below 1 µg/mL. Is it met by `O=C(CSc1nc2ccccc2s1)Nc1ccccc1` ?
n

Criterion: IC50 against E. coli ParE enzyme strictly below 1 µg/mL. Is it met by `O=C(CNc1nc2ccccc2s1)Nc1ccccc1` ?
n

Criterion: IC50 against E. coli ParE enzyme strictly below 1 µg/mL. Is it met by `O=C(COc1ccccc1NC(=O)CCl)NNc1ccc([N+](=O)[O-])cc1[N+](=O)[O-]` ?
y

Criterion: IC50 against E. coli ParE enzyme strictly below 1 µg/mL. Is it met by `O=C(COc1ccccc1NC(=O)CCl)Nc1cc(Cl)c(Cl)cc1Cl` ?
n

Criterion: IC50 against E. coli ParE enzyme strictly below 1 µg/mL. Is it met by `O=C(COc1ccccc1NC(=O)CCl)NNC(=O)c1ccccc1Cl` ?
n

Criterion: IC50 against E. coli ParE enzyme strictly below 1 µg/mL. Is it met by `COc1ccc(OCC(=O)Nc2ccc(C(=O)O)cc2)cc1` ?
n

Criterion: IC50 against E. coli ParE enzyme strictly below 1 µg/mL. Is it met by `COc1ccc(C(=O)NNC(=O)COc2ccccc2NC(=O)CCl)cc1` ?
n

Criterion: IC50 against E. coli ParE enzyme strictly below 1 µg/mL. Is it met by `O=C(COc1ccccc1NC(=O)CCl)NNC(=O)c1ccc([N+](=O)[O-])cc1` ?
y

Criterion: IC50 against E. coli ParE enzyme strictly below 1 µg/mL. Is it met by `O=C(COc1ccccc1NC(=O)CCl)Nc1ccc(C(=O)O)cc1Br` ?
y

Criterion: IC50 against E. coli ParE enzyme strictly below 1 µg/mL. Is it met by `O=C(COc1ccccc1NC(=O)CCl)NNC(=O)c1ccncc1` ?
n

---

Assignment: determine reported MBC for the given compounds.
tested on: MRSA (NCIM 5021); assay: Minimum bactericidal concentration (MBC); assay type: cell-based, methicillin-resistant Staphylococcus aureus
Answer in µg/mL, number only, no unit symbol.

Look up MBC with MRSA (NCIM 5021) for this compound: `O=C(CCl)Nc1ccccc1OCC(=O)Nc1ccc([N+](=O)[O-])cc1[N+](=O)[O-]`
0.95

Look up MBC with MRSA (NCIM 5021) for this compound: `O=C(COc1ccc2ccccc2c1)Nc1ccc(Cl)cc1`
0.75

Look up MBC with MRSA (NCIM 5021) for this compound: `O=C(CSc1nc2ccccc2s1)Nc1ccc([N+](=O)[O-])cc1`
0.81

Look up MBC with MRSA (NCIM 5021) for this compound: `O=C(COc1ccccc1NC(=O)CCl)Nc1ccc(Cl)cc1`
4.8

---

The reader will find CC50 measurements below, all made with Vero cells.
Answer in µg/mL, number only, no unit symbol.

CC50 lookup needed for `O=C(COc1ccccc1NC(=O)CCl)Nc1ccc(C(=O)O)cc1Br` , thanks.
61.7583

CC50 lookup needed for `O=C(CCl)Nc1ccccc1OCC(=O)Nc1ccc([N+](=O)[O-])cc1[N+](=O)[O-]` , thanks.
224.7306

CC50 lookup needed for `O=C(COc1ccccc1NC(=O)CCl)NNC(=O)c1ccc([N+](=O)[O-])cc1` , thanks.
64.7605

CC50 lookup needed for `O=C(CSc1nc2ccccc2s1)Nc1ccc([N+](=O)[O-])cc1` , thanks.
168.8089

Where do these numbers come from? They come from paper PMC8247773.
